- method.summary: cell-free cyclolavandulylation activity screening of prenyltransferases, substrate olivetolic acid
- Format: biochemical
- condition.description: cell-free reaction with CLDS and DMAPP (CLPP donor), 28° C., 48 hours, QTOF LC/MS, with vs without prenyltransferase
property: presence of cyclolavandulylated product, Aromatic Compound (Substrate) Olivetolic Acid

molecule: Sr1310PT: prenyltransferase, Accession: WP_057602682.1, SEQ ID NO: 12 (protein, listed as Streptomyces sp.) MSGAADVERVYAAMEEAAGLLDVSCAREKIYPLLTVFQDTLTDGVVVFSMASGRRSTELDFSISVPVSQGDPYATVVKEGLFQATGSPVDELLADTVAHLPVSMFAIDGEVTGGFKKTYAFFPTDDMPGVAQLAAIPSMPASVAENAELFARYGLDKVQMTSMDYKKRQVNLYFSDLKQEYLQPESVVALARELGLRVPGELGLEFCKRSFAVYPTLNWDTGKIDRLCFAAISTDPTLVPSEDERDIEMFRNYATKAPYAYVGEKRTLVYGLTLSSTEEYYKLGAYYHITDIQRQLLKAFDALED
result: No
--
molecule: SvPT: prenyltransferase, Accession: WP_078899560.1, SEQ ID NO: 11 (protein, listed as Streptomyces sp.) MSEASELADIYSAIEETAQLLDVPCSRDKVQPALAAFGDGLADAHIVFSMATGERYKGELAFDFTVPTAAGDPYAIALANGLVEETDHPIRTLFSDVQKRCPVDSYGVDYGIVGGFKKTYISFPLGDLQRLSALVGIPSMPRALAEHADFFASHGLDDKVSAIAIDYAHRTWNVYFSGIPAEVKEPQTLQSVLQKFGLPEPSEQLMDFIRTSFAMYTTFGWDSTKAERICFSARSSDPTALPAQFEPQIGKFAKSAPYTYTGERVLTYAGALSPSEEFYKLATFYQKTSKLSDRVRPAT
result: No
--
molecule: MzPT1: prenyltransferase, Accession: WP_135330628.1, SEQ ID NO: 18 (protein, listed as Streptomyces sp.) MSRTAEVERVYSAIEEAAGLLSAVCSRDNVWPVLDAFGDELAEAMIVFGGQAGDRHAGELDYSFTVPSSIGNPYPHALSRGLVTETDHPVGSVLSDIQGRWPIKEHFVDAGVVGGFKKLYAHFPDNMQKVSDIADIPSMPRAVAENAALFARYGLDQVAMIGVDYRHKTVSVYFHFGPDGRPEPSTIRALLSDLGMPEPDEPTLEFAHKSLRVNITLGWETGDVIRVAFAPPPVRGLDPSALPGQLTPRMEEFARVSPRAYAGGRVNMYAVKWMRGEEFHEVCTYYQLTPWYEKILTDAPKEQQG
result: Yes
